- Test system: almond β-glucosidase
- protocol: Glycosidase inhibition, laboratory 2: almond β-glucosidase
- Type: biochemical
- condition_description: water
Please respond with reported % inhibition at ~400 μM for every item in the list.
Give bare numbers, in %.

> print(dat)
                            chemical.string  result
1  CC1(C)OB(c2ccccc2NC(=O)c2cc(Cl)c(Cl)c(Cl)c2Cl)OC1(C)C      21
2  CC1(C)OB(c2cccc(CN3C(=O)c4c(Cl)c(Cl)c(Cl)c(Cl)c4C3=O)c2)OC1(C)C    19.3
3  CC1(C)OB(c2ccccc2CNC(=O)c2cc(Cl)c(Cl)c(Cl)c2Cl)OC1(C)C    83.4
4  CC1(C)OB(c2ccc(CN3C(=O)c4c(Cl)c(Cl)c(Cl)c(Cl)c4C3=O)cc2)OC1(C)C    15.4

Please supply % inhibition at ~400 μM for each of the following items, keeping them in order.
1. CC1(C)OB(c2ccc(NC(=O)c3cc(Cl)c(Cl)c(Cl)c3Cl)cc2)OC1(C)C
2. CC1(C)OB(c2cccc(NC(=O)c3cc(Cl)c(Cl)c(Cl)c3Cl)c2)OC1(C)C

Result:
1. 11.3
2. 18.7

Data provenance: paper PMC9182199
